# Type: physicochemical
# measurement_conditions: buffer, pH 7.2
measurement_kind: Half-life

## Input Given the molecule 22-13B12: GAT polypeptide, SEQ ID NO: 781 (protein, D_S00397672_22-13B12) MIEVKPINAEDTYDLRHRVLRPNQPIEACMFESDLMRGAFHLGGFYGGKLISVASFHQAEHSELQGQKQYQLRGMATLEGYREQKAGSSLVKHAEEILRKRGADILWCNARTSASGYYRKLGFSEQGEVFDTPPVGPHILMYKRIT , write its reported Half-life.
## Output 67 h

## Input Report measured Half-life; entry is 22-15B4: GAT enzyme SEQ ID NO:789; Table 9 prints SEQ ID NO: 946 (protein, D_S00397832_GAT22-15B4) MIEVKPINAEDTYDLRHRVLRPNQPIEACMFDSDLMRSAFHLGGFYGGKLISVASFHQAEHTELQGQKQYQLRGVATLEGYREQKAGSSLVKHAEEILRKRGVDLLWCNARTSASGYYKKLGFSEQGEVFDTPPVGPHILMYKRIT
## Output 26 h

## Input In one line, give reported Half-life of the entry 17-15H3: evolved GAT; polypeptide SEQ ID NO:601, transgene SEQ ID NO:549 (protein, D_S00260796_17-15H3) MIEVKPINAEDTYELRHRILRPNQPIEACMFESDLLRGAFHLGGYYGGKLISIASFHQAEHSELQGQKQYQLRGMATLEGYREQKAGSSLIKHAEEILRKRGADLLWCNARTSASGYYKKLGFSEQGEVFDTPPVGPHILMYKRIT .
## Output 45 h
